system: M14 melanoma; assay: NCI-60 one-dose screen, 48 h (100 = growth as untreated, 0 = no growth, -100 = all killed); conditions: 10 µM unless noted
The panel holds about 83,000 compounds, 20% with a hit somewhere; the sample as a whole holds those more often.
Think of 30% as a floor: if growth stands on it or above, it is met; beneath it, not met.

1. C=CCn1c(SCC(=O)Nc2cccc(C(=O)/C=C/c3cccc([N+](=O)[O-])c3)c2)nc2ccccc2c1=O: met
2. CN1CCN(Cc2ccc(NC(=O)c3cncc(C#Cc4cnc5ccc(NC6CCOCC6)nn45)c3)cc2C(F)(F)F)CC1: not met
3. COc1cc2cc(Oc3ccc(NC(=O)Nc4cccc(C(F)(F)F)c4)cc3)c(C)nc2cc1OCCN(C)C: met
4. C/C(=C(/c1ccc(O)cc1)c1ccc(OCCN(C)C)cc1)c1ccc(Cl)cc1: not met
5. O=C(Nc1cccc(-c2nc(-c3ccc(NC(=O)c4cccs4)cc3Cl)no2)c1)Nc1ccc(NC(=O)C2CC2)c(C(F)(F)F)c1: not met
6. Oc1ccc(CSc2nnc(-c3ccncc3)o2)c2cccnc12: not met
7. O=C1Nc2ccc(Br)cc2/C1=N\c1nnc(-c2ccc(Cl)cc2)o1: met
8. Oc1ccccc1/C=N/Nc1nc(N/N=C/c2ccccc2O)nc(N2CCOCC2)n1: met
9. C=CCn1c(SCC(=O)Nc2cccc(C(=O)/C=C/c3ccc(OC)c(OC)c3)c2)nc2ccccc2c1=O: met
